relative integration efficiency (log2): recorded values
Test system: VchCAST RNA-guided transposition machinery (E. coli BL21(DE3) host, lacZ target)
Assay: relative integration efficiency (T-RL orientation) vs wild-type transposon end (log2 (normalized fold change)); transposon end mutated: right end (5 bp flank + 75 bp right end); higher = more efficient transposition

# residues, relative integration efficiency (log2)
rows = [
    ("ACATTTGTTGATACAACCATAAAATGATAATTACACCCATAAAGGGATAATTATCACACCCATAAATTGATATTGCCTCTGATCATAGTCAGACCAACATTGCTACGACCCGTATTCGCACCGACAC", -0.447),
    ("ACATTTGGGTCTACAACCATAAAATGATAATTACACCCATAAATTGATAATTATCACACCCATAAATTGATATTGCCTCTGATCATAGTCAGACCAACATTGCTACGACCCGTATTCGCACCGACAC", -7.19),
    ("ACATTTGTTGATCCAACCATAAAATGATAATTACACCCATAAATTGATCATTATCACACCCAATTTAACTATAACGCTCTGATCATAGTCAGACCAACATTGCTACGACCCGTATTCGCACCGACAC", -1.7),
    ("ACATTTGTTGATACAACCATAAAATGATAATTACACCCATAAATGTCGCCGGCGACACAAACGCCCGGTCGCGGTAAGAGGATCATAGTCAGACCAACATTGCTACGACCCGTATTCGCACCGACAC", -1.73),
    ("ACATTTGTTGATACACCCATAAATTGATAATTACAACCATAAAGTGATATTTATCACACCCATAAATTGATATTGCCTCTGATCATAGTCAGACCAACATTGCTACGACCCGTATTCGCACCGACAC", -0.477),
    ("ACATTTGTTGATACACCCATAAATTGATATTGCCAACCATATATTGATATCTCTCACAACCATAAAATGATAATTACTCTGATCATAGTCAGACCAACATTGCTACGACCCGTATTCGCACCGACAC", -1.22),
    ("ACATTTGTTGATACAACCATAAGTTGATATTTTCACCCATAAATTGATAATTATCACAACCATATATTGATATCTCCTCTGATCATAGTCAGACCAACATTGCTACGACCCGTATTCGCACCGACAC", -0.64),
    ("ACATTTGTGGATACAACCATAAAATGATAATTACCACCCCTACATTGATAATTATCACACCCATTTAACTATAACGCTCTGATCATAGTCAGACCAACATTGCTACGACCCGTATTCGCACCGACAC", -3.07),
    ("ACATTTGTTCTTACAACCATAAAATGATAATTACACCCATAAATTGATAATTATCACACCCATAAATTGATATTGCCTCTGATCATAGTCAGACCAACATTGCTACGACCCGTATTCGCACCGACAC", -0.825),
    ("ACATTTGTTGATACACCCATAAATTGATATTGCCAACCATAAGTTGATATTTTTCACAACCATATATTGATATCTCCTCTGATCATAGTCAGACCAACATTGCTACGACCCGTATTCGCACCGACAC", -0.899),
    ("ACATTTGTTGATACAACCATAAAATGATAATTAATAATTATTCACCCATAAATTGATAATTATCAACAAACGCCCGGTCGCGGTACTCTGATCATAGTCAGACCAACATTGCTACGACCCGTATTCG", -2.63),
    ("ACATTTGTTGATACAACCATAAAGTGATATTTACACCCATAAATTGATAATTATCACAACCATAAAGTGATATTTACTCTGATCATAGTCAGACCAACATTGCTACGACCCGTATTCGCACCGACAC", -0.155),
    ("ACATTTGTTGATACCACCATAAAATGGTAATTACACCCATACATTGATAATTATCACACCCAATTTAACTATAACGCTCTGATCATAGTCAGACCAACATTGCTACGACCCGTATTCGCACCGACAC", -2.87),
    ("ACATTTGTTGATACAACCATAAGTTGATATTTTCAACCATATATTGATATCTCTCACACCCATAAATTGATATTGCCTCTGATCATAGTCAGACCAACATTGCTACGACCCGTATTCGCACCGACAC", -0.363),
]

Sourced from the supplement of paper PMC10201428
